# credit: paper PMC7155171

The entries below come with measured % viability values attached.
tested on: P. falciparum (NF54) stage V gametocytes; parameters: Mature stage V gametocyte viability, MitoTracker Red CMXRos high-content imaging; settings: primary screen, n=2, fraction of DMSO control; 72 h, 2 µM; inhibitor
The full ranking holds about 68,000 compounds; the median of “% viability” is about 1.1, and the lowest 2% start at about 0.96. The list comes from a sample in which the lowest values are over-represented; it also holds close analogues and randomly drawn compounds. The numbers are fractions of the control, whatever unit the source prints.
Phrase the answer as number then unit, nothing more needed.

Examples from the recorded data:
molecule=Cc1nc(N2CCCC2)ncc1-c1cc(=O)n2ncnc2[nH]1 metric_name="% viability" result=1.014%
molecule="Cc1[nH]n(C2CCS(=O)(=O)C2)c(=O)c1Cc1ccc(Br)cc1 (centres unmarked)" metric_name="% viability" result=1.197%

Now let's try a different one.
Tell me measured % viability for `CCc1nn(C)c(N)c1-c1ccc2c(c1)OCO2` please.
1.278%
